protocolDetails: Quantitative High-Throughput drug screen in 47 multiple myeloma cell lines against the NCATS MIPE library collection: SKMM1_PLB cell viability assay (AID 1919863); further: potency means the concentration at half of the fitted maximal effect; nearly all actives have a fitted effect of over 35% in size
experimentalParameters: SKMM1 myeloma viability, CellTiter-Glo ATP, 48 h
Records with an inconclusive call do not appear. Calls of active or inactive are those of the source. The call rests on the fitted dose curve; in most records, active means well fitted cell-killing curve with a large enough effect; inconclusive means small, poorly fitted or top-dose-only effect, or effect the other way; inactive means no such curve, though single readings can be large or run the other way.
Potency reference

Example entries and their recorded answers appear below.
COc1cc2c(cc1OC)[C@@H]1C(=O)c3ccc4c(c3O[C@@H]1CO2)C=CC(C)(C)O4	13.2 µM (active)
NC(=O)Nc1sc(-c2ccc(F)cc2)cc1C(N)=O	11.8 µM (active)
COc1cc(C=CC(=O)CC(=O)C=Cc2ccc(O)c(OC)c2)ccc1O	15.2 µM (active)

Summary for this molecule, CC(=O)N1CCN(c2ccc(OCc3nn(C)c(C)c3-c3cccc4c(CCCOc5cccc6ccccc56)c(C(=O)O)n(Cc5cccnc5)c34)cc2)CC1 : Potency is 20.9 µM (active)

Summary for this molecule, Cn1cc(CNCC2CCN(c3ncc(C(=O)NO)cn3)CC2)c2ccccc21 : Potency is 0.059 µM (active)

Summary for this molecule, Cc1cnn(C)c1C(=O)Nc1cc(Nc2ccc3c(C=Cc4ccccn4)n[nH]c3c2)ccc1F : Potency is 20.9 µM (active)

Summary for this molecule, O=C(Nc1cccc(Nc2ncc(Br)c(NCCc3cnc[nH]3)n2)c1)N1CCCC1 : Potency is 23.5 µM (active)

Summary for this molecule, CN[C@H]1[C@@H](O)[C@@H]2O[C@@H]3O[C@H](C)CC(=O)[C@]3(O)O[C@@H]2[C@@H](NC)[C@H]1O : Potency is 10.5 µM (active)

Summary for this molecule, NC(=O)N1CCC(CC(=O)N2CCC([C@H]3c4ncc(Br)cc4CCc4cc(Cl)cc(Br)c43)CC2)CC1 : Potency is 18.7 µM (active)

* * *

protocolDetails: qHTS drug screen for cell cycle checkpoint inhibitors in PARPi-resistant BRCA-mutant ovarian cancer cell lines. (AID 1963452)
experimentalParameters: PEO1/OlaR viability, CellTiter-Glo luminescence, 96 h; measured here: PEO1 parental Z-AUC; stronger effect = lower value
Description: Women's Malignancies Branch, Center for Cancer Research (CCR), National Cancer Institute (NCI), National Institutes of Health (NIH), Bethesda, MD Poly (ADP-ribose) polymerase inhibitors (PARPis) have changed the treatment paradigm in breast cancer gene (BRCA) - mutant high-grade serous ovarian carcinoma (HGSC). […] 6; Detection; Luminescence, PHERAstar (BMG Labtech) plate reader. […] 6. Luminescence readings were taken using PHERAstar (BMG Labtech). […]
Residues, ends and D or L forms follow the SMILES beside them. *: point of attachment. Cbz = O=C(OCc1ccccc1)*
reportedEndpoint: Z-AUC
Please respond with just the number, no unit label.

Example entries and their recorded answers appear below.
O=C(CN1C(=O)C2(CCCC2)NC[C@H]1c1cc(F)cc(F)c1)Nc1ccc2c(c1)C[C@@]1(C2)C(=O)Nc2ncccc21	-0.0432
CC(C)C[C@@H](C=O)NC(=O)[C@H](CC(C)C)NC(=O)[C@H](CC(C)C)NC(=O)OCc1ccccc1 (Cbz-Leu-Leu-Leu-aldehyde)	-0.937
CCCCCCCN(CC)CCCC(O)c1ccc(NS(C)(=O)=O)cc1 (stereo unspecified)	0.764
O=C(Nc1nnc(-c2ccco2)o1)c1cc(-c2ccccc2)nc2ccccc12	0.606
C[C@](Cc1c[nH]c2ccccc12)(NC(=O)OC1C2CC3CC(C2)CC1C3)C(=O)NC[C@H](NC(=O)CCC(=O)O)c1ccccc1 (stereo partly specified)	-0.184
CC(=O)OC[C@@H]1O[C@@H](n2ccc(=O)[nH]c2=O)[C@H](OC(C)=O)[C@H]1OC(C)=O	0.423
c1cc(N[C@@H]2CCNC2)nc(-c2cnc3ccc(-c4cn[nH]c4)cn23)c1	-0.698
NC(=O)Nc1sc(-c2ccc(F)cc2)cc1C(N)=O	-1.13
C[C@@H](NCc1cc2ccccc2[nH]1)c1cccc2ccccc12	0.376
CC(=O)SCC(Cc1ccccc1)C(=O)NCC(=O)OCc1ccccc1 (stereo unspecified)	1.28

Here is another compound to look at.
Summary for this compound, FC(F)c1nc2ccccc2n1-c1nc(N2CCOCC2)nc(N2CCOCC2)n1 : Z-AUC is -1.07

* * *

protocolDetails: qHTS profiling of the MIPE4 collection as inhibitors of Plasmodium falciparum (3D7) proliferation (AID 743344);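 further: scaled between DMSO vehicle wells and 0.29 µM artemisinin as full inhibition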
experimentalParameters: P. falciparum 3D7 in erythrocytes, SYBR Green DNA fluorescence, 72 h; at 28.5 µM (top of the series) unless noted
parasite growth, % of DMSO control reference
Only the number, expressed in %, is required.

Example entries and their recorded answers appear below.
CCOC(=O)C1=C(C)NC(=S)NC1c1cccc(O)c1 (centres undefined)	90.7
CNC(=O)c1ccc(Nc2cc(Nc3ccccc3S(=O)(=O)C(C)C)c3cc[nH]c3n2)nc1	4.82
CCc1cc(C(C)=NOCc2ccc(C3CCCCC3)c(C(F)(F)F)c2)ccc1CN1CC(C(=O)O)C1	6.45
Cc1ccccc1C(=O)Nc1ccc(C(=O)N2CCCC(O)c3cc(Cl)ccc32)c(C)c1 (centres undefined)	22.8

Summary for this compound, Nc1ncn([C@@H]2O[C@H](CO)[C@@H](O)[C@@H]2O)c(=O)n1 : parasite growth, % of DMSO control is 100

* * *

System: MKL-2
protocolDetails: qHTS assay to identify novel small-molecules to repurpose for Merkel cell carcinoma treatment (AID 1296009); further: nearly all actives have a fitted effect of over 60% in size
experimentalParameters: MCC and control cell lines, CellTiter-Glo viability, 72 h; series mostly up to 46 µM
Inconclusive results are not listed. Activity calls are given as the source filed them. Calls follow the shape of the dose curve; as a rule, active = well fitted inhibition curve with a large enough effect; inconclusive = small, poorly fitted or top-dose-only effect; inactive = flat fitted curve, though single readings scatter. Non-standard residues stand in square brackets, D forms with d. Residues, ends and D or L forms follow the SMILES beside them. *: point of attachment. Nva = CCC[C@H](N)C(=O)O; Cbz = O=C(OCc1ccccc1)*
Respond using exactly one of the listed classes: active, inactive

# example entries with known answers
Nc1nc(=O)n([C@H]2CSC(CO)O2)cc1F (stereo partly specified)	inactive
Nc1nc2c(c(=O)[nH]1)N(C=O)[C@H](CNc1ccc(C(=O)N[C@@H](CCC(=O)O)C(=O)O)cc1)CN2	inactive

GET /call?item= COc1cc([C@@H]2c3cc4c(cc3[C@@H](O[C@@H]3O[C@@H]5CO[C@@H](c6cccs6)O[C@@H]5[C@H](O)[C@@H]3O)[C@H]3COC(=O)[C@H]23)OCO4)cc(OC)c1O returns the recorded outcome of this test.
active

GET /call?item= COc1ccc2c(c1OC)C(=O)OC2[C@H]1c2c(cc3c(c2OC)OCO3)CCN1C (stereo partly specified) returns the recorded outcome of this test.
inactive

GET /call?item= C[C@H](NC(=O)[C@@H](O)c1cc(F)cc(F)c1)C(=O)N[C@@H]1C(=O)N(C)c2ccccc2-c2ccccc21 returns the recorded outcome of this test.
inactive

GET /call?item= C[C@]12C=CC(=O)N[C@@H]1CC[C@H]1[C@H]3CC[C@@H](C(=O)Nc4cc(C(F)(F)F)ccc4C(F)(F)F)[C@@]3(C)CC[C@@H]12 returns the recorded outcome of this test.
inactive

GET /call?item= CCOC(=O)N1CCN([N+]([O-])=NOc2ccc([N+](=O)[O-])cc2[N+](=O)[O-])CC1 returns the recorded outcome of this test.
active

GET /call?item= CCC[C@@H](C=O)NC(=O)[C@H](CC(C)C)NC(=O)[C@H](CC(C)C)NC(=O)OCc1ccccc1 (Cbz-Leu-Leu-[Nva]-aldehyde) returns the recorded outcome of this test.
active

GET /call?item= O=C1c2c(O)cccc2[C@@H]([C@@H]2O[C@H](CO)[C@@H](O)[C@H](O)[C@H]2O)c2cc(CO)cc(O)c21 returns the recorded outcome of this test.
inactive

GET /call?item= CCN(CC)Cc1ccc2cc(COC(=O)Nc3ccc(C(=O)NO)cc3)ccc2c1 returns the recorded outcome of this test.
active

GET /call?item= COC(=O)[C@H](CCCN=C(N)N)NS(=O)(=O)c1ccc(C)cc1 returns the recorded outcome of this test.
inactive

GET /call?item= COC1=C(OC)C(=O)C(CC=C(C)CCC=C(C)CCC=C(C)CCC=C(C)CCC=C(C)CCC=C(C)CCC=C(C)CCC=C(C)CCC=C(C)CCC=C(C)C)=C(C)C1=O returns the recorded outcome of this test.
inactive

GET /call?item= Cc1cncc2cccc(S(=O)(=O)N3CCCN(C(=O)CN)C[C@@H]3C)c12 returns the recorded outcome of this test.
inactive

* * *

protocolDetails: P-glycoprotein substrates identified in KB-3-1 adenocarcinoma cell line, qHTS therapeutic library screen (AID 1346986); further: nearly all actives have a fitted effect of over 60% in size
experimentalParameters: KB-3-1 parental cells viability, CellTiter-Glo, 72 h; series mostly up to 44.5 µM
Inconclusive results are not listed. Activity calls are given as the source filed them. Calls come from the whole dose curve; as a rule, active = well fitted inhibition curve with a large enough effect; inconclusive = small, poorly fitted or top-dose-only effect; inactive = no such curve, though single readings can be large or run the other way.
Respond using exactly one of the listed classes: Yes = active, No = inactive

GET /call?item= CC1(C)O[C@@H]2C[C@H]3[C@@H]4CCC5=CC(=O)C=C[C@]5(C)[C@@H]4[C@@H](O)C[C@]3(C)[C@]2(C(=O)CO)O1 returns the recorded outcome of this test.
No

GET /call?item= CNC(=O)Nc1ccc(-c2nc(N3CC4CCC(C3)O4)c3cnn(C4CCC5(CC4)OCCO5)c3n2)cc1 returns the recorded outcome of this test.
Yes

GET /call?item= N#Cc1c(NC(=O)c2cccc3ccccc23)sc2c1CCCC2 returns the recorded outcome of this test.
Yes

GET /call?item= C[N+]1(C)[C@@H]2C[C@@H](OC(=O)C(O)(c3cccs3)c3cccs3)C[C@H]1[C@@H]1O[C@@H]12 returns the recorded outcome of this test.
No

GET /call?item= CCOC(=O)N1CCN([N+]([O-])=NOc2ccc([N+](=O)[O-])cc2[N+](=O)[O-])CC1 returns the recorded outcome of this test.
No

GET /call?item= Cn1cc(C=CC(=O)c2cccc(F)c2)cc1C=CC(=O)NO returns the recorded outcome of this test.
No

GET /call?item= COc1ccc([C@@H]2CNC(=O)C2)cc1OC1CCCC1 returns the recorded outcome of this test.
No

GET /call?item= O=C(O)c1ccc(Nc2ncc3c(n2)-c2ccc(Cl)cc2C(c2c(F)cccc2F)=NC3)cc1 returns the recorded outcome of this test.
Yes

GET /call?item= CCCCCCCCCCCCc1ccc(S(=O)(=O)Nc2nncs2)cc1 returns the recorded outcome of this test.
No
